FYI, the data here is from ChEMBL document CHEMBL5579805.

Entries and their measured -logMIC follow.
Tested on: Staphylococcus aureus
Method: Antibacterial activity against Staphylococcus aureus by two-fold dilution method
Type: functional

- Compound string: "COC(=O)CCC[C@@H]1[C@H]2CCCN3CCC[C@@H](CN1C(=O)c1cc4ccc(Cl)cc4n1Cc1ccc(C)cc1)[C@@H]23"
  -logMIC: 0.221
- Compound string: "COC(=O)CCC[C@@H]1[C@H]2CCCN3CCC[C@@H](CN1C(=O)c1cc4ccc(Cl)cc4n1Cc1cccc(C(F)(F)F)c1)[C@@H]23"
  -logMIC: 0.866
- Compound string: "COC(=O)CCC[C@@H]1[C@H]2CCCN3CCC[C@@H](CN1C(=O)c1cc4ccc(Cl)cc4n1Cc1ccc(C(F)(F)F)cc1)[C@@H]23"
  -logMIC: 1.678
- Compound string: "COC(=O)CCC[C@@H]1[C@H]2CCCN3CCC[C@@H](CN1C(=O)c1cc4ccc(Cl)cc4[nH]1)[C@@H]23"
  -logMIC: 0.207
- Compound string: "COC(=O)CCC[C@@H]1[C@H]2CCCN3CCC[C@@H](CN1C(=O)c1cc4ccc(Cl)cc4n1Cc1ccc(F)cc1)[C@@H]23"
  -logMIC: 0.035
- Compound string: "COC(=O)CCC[C@@H]1[C@H]2CCCN3CCC[C@@H](CN1C(=O)c1cc4ccc(Cl)cc4n1Cc1ccc(Br)cc1)[C@@H]23"
  -logMIC: 0.06
- Compound string: "COC(=O)CCC[C@@H]1[C@H]2CCCN3CCC[C@@H](CN1C(=O)c1cc4ccc(Cl)cc4n1Cc1ccc(F)c(F)c1)[C@@H]23"
  -logMIC: 0.37
- Compound string: "COC(=O)CCC[C@@H]1[C@H]2CCCN3CCC[C@@H](CN1C(=O)c1cc4ccc(Cl)cc4n1Cc1cc(C(C)(C)C)cc(C(C)(C)C)c1)[C@@H]23"
  -logMIC: 1.032
- Compound string: "COC(=O)CCC[C@@H]1[C@H]2CCCN3CCC[C@@H](CN1C(=O)c1cc4ccc(Cl)cc4n1Cc1cccc([N+](=O)[O-])c1)[C@@H]23"
  -logMIC: 1.509
- Compound string: "COC(=O)CCC[C@@H]1[C@H]2CCCN3CCC[C@@H](CN1C(=O)c1cc4ccc(Cl)cc4n1Cc1ccc(-c4ccccc4)cc1)[C@@H]23"
  -logMIC: 1.276
- Compound string: "COC(=O)CCC[C@@H]1[C@H]2CCCN3CCC[C@@H](CN1C(=O)c1cc4ccc(Cl)cc4n1Cc1ccccc1C#N)[C@@H]23"
  -logMIC: 0.319
- Compound string: "COC(=O)CCC[C@@H]1[C@H]2CCCN3CCC[C@@H](CN1C(=O)c1cc4ccc(Cl)cc4n1Cc1ccc4ccccc4c1)[C@@H]23"
  -logMIC: 1.187
- Compound string: "COC(=O)CCC[C@@H]1[C@H]2CCCN3CCC[C@@H](CN1C(=O)c1cc4ccc(Cl)cc4n1Cc1ccccc1C(C)(C)C)[C@@H]23"
  -logMIC: 0.75
- Compound string: "COC(=O)CCC[C@@H]1[C@H]2CCCN3CCC[C@@H](CN1C(=O)c1cc4ccc(Cl)cc4n1Cc1cc(OC)ccc1Br)[C@@H]23"
  -logMIC: 0.111
- Compound string: "COC(=O)CCC[C@@H]1[C@H]2CCCN3CCC[C@@H](CN1C(=O)c1cc4ccc(Cl)cc4n1Cc1ccc(Cl)cc1)[C@@H]23"
  -logMIC: 0.73
- Compound string: "COC(=O)CCC[C@@H]1[C@H]2CCCN3CCC[C@@H](CN1C(=O)c1cc4ccc(Cl)cc4n1Cc1cccc(OCc4ccccc4)c1)[C@@H]23"
  -logMIC: 0.932
- Compound string: "COC(=O)CCC[C@@H]1[C@H]2CCCN3CCC[C@@H](CN1C(=O)c1cc4ccc(Cl)cc4n1Cc1ccc(F)cc1Br)[C@@H]23"
  -logMIC: 0.458
- Compound string: "COC(=O)CCC[C@@H]1[C@H]2CCCN3CCC[C@@H](CN1C(=O)c1cc4ccc(Cl)cc4n1Cc1ccc(OC)cc1)[C@@H]23"
  -logMIC: 0.451
- Compound string: "COC(=O)CCC[C@@H]1[C@H]2CCCN3CCC[C@@H](CN1C(=O)c1cc4ccccc4[nH]1)[C@@H]23"
  -logMIC: -0.991
- Compound string: "COC(=O)CCC[C@@H]1[C@H]2CCCN3CCC[C@@H](CN1C(=O)c1cc4ccc(Cl)cc4n1Cc1c(Cl)cccc1Cl)[C@@H]23"
  -logMIC: 0.785
- Compound string: "COC(=O)CCC[C@@H]1[C@H]2CCCN3CCC[C@@H](CN1C(=O)c1cc4ccc(Cl)cc4n1Cc1cc(C#N)ccc1F)[C@@H]23"
  -logMIC: 0.587
- Compound string: "COC(=O)CCC[C@@H]1[C@H]2CCCN3CCC[C@@H](CN1C(=O)c1cc4ccc(Cl)cc4n1Cc1ccc(C(C)(C)C)cc1)[C@@H]23"
  -logMIC: 1.071
- Compound string: "COC(=O)CCC[C@@H]1[C@H]2CCCN3CCC[C@@H](CN1C(=O)c1cc4ccc(Cl)cc4n1Cc1ccccc1)[C@@H]23"
  -logMIC: 0.283
- Compound string: "COC(=O)CCC[C@@H]1[C@H]2CCCN3CCC[C@@H](CN1C(=O)c1cc4ccc(Cl)cc4n1Cc1ccc([N+](=O)[O-])cc1)[C@@H]23"
  -logMIC: 0.745
- Compound string: "COC(=O)CCC[C@@H]1[C@H]2CCCN3CCC[C@@H](CN1C(=O)c1cc4ccc(Cl)cc4n1Cc1ccccc1C)[C@@H]23"
  -logMIC: 1.201

###

System: Candida albicans
Method: […] activity against Candida albicans by two-fold dilution method
Format: functional
Condition summary: Candida albicans
Reported endpoint: MIC (µg/mL)

- Compound string: "COC(=O)CCC[C@@H]1[C@H]2CCCN3CCC[C@@H](CN1C(=O)c1cc4ccc(Cl)cc4n1Cc1cc(C#N)ccc1F)[C@@H]23"
  Meas value: 10.6
- Compound string: "COC(=O)CCC[C@@H]1[C@H]2CCCN3CCC[C@@H](CN1C(=O)c1cc4ccc(Cl)cc4n1Cc1ccc4ccccc4c1)[C@@H]23"
  Meas value: 12.2
- Compound string: "COC(=O)CCC[C@@H]1[C@H]2CCCN3CCC[C@@H](CN1C(=O)c1cc4ccc(Cl)cc4n1Cc1cc(C(C)(C)C)cc(C(C)(C)C)c1)[C@@H]23"
  Meas value: 9.02
- Compound string: "COC(=O)CCC[C@@H]1[C@H]2CCCN3CCC[C@@H](CN1C(=O)c1cc4ccc(Cl)cc4n1Cc1ccccc1C#N)[C@@H]23"
  Meas value: 11.2
- Compound string: "COC(=O)CCC[C@@H]1[C@H]2CCCN3CCC[C@@H](CN1C(=O)c1cc4ccccc4[nH]1)[C@@H]23"
  Meas value: 14.3
- Compound string: "COC(=O)CCC[C@@H]1[C@H]2CCCN3CCC[C@@H](CN1C(=O)c1cc4ccc(Cl)cc4[nH]1)[C@@H]23"
  Meas value: 6.59

###

System: Candida albicans
Method: […] activity against Candida albicans by two-fold dilution method
Type: functional
Condition summary: Candida albicans
Met if MIC is below 8 µg/mL. Not met if not; exact matches included in Not met.

- Compound string: "COC(=O)CCC[C@@H]1[C@H]2CCCN3CCC[C@@H](CN1C(=O)c1cc4ccc(Cl)cc4n1Cc1ccccc1)[C@@H]23"
  Assigned class: "Not met"
- Compound string: "COC(=O)CCC[C@@H]1[C@H]2CCCN3CCC[C@@H](CN1C(=O)c1cc4ccc(Cl)cc4n1Cc1ccc(F)cc1Br)[C@@H]23"
  Assigned class: "Not met"
- Compound string: "COC(=O)CCC[C@@H]1[C@H]2CCCN3CCC[C@@H](CN1C(=O)c1cc4ccc(Cl)cc4n1Cc1ccccc1[N+](=O)[O-])[C@@H]23"
  Assigned class: "Not met"
- Compound string: "COC(=O)CCC[C@@H]1[C@H]2CCCN3CCC[C@@H](CN1C(=O)c1cc4ccc(Cl)cc4n1Cc1ccc(F)cc1)[C@@H]23"
  Assigned class: "Met"
- Compound string: "OC(Cn1cncn1)(Cn1cncn1)c1ccc(F)cc1F"
  Assigned class: "Met"
- Compound string: "COC(=O)CCC[C@@H]1[C@H]2CCCN3CCC[C@@H](CN1C(=O)c1cc4ccc(Cl)cc4n1Cc1cccc([N+](=O)[O-])c1)[C@@H]23"
  Assigned class: "Not met"
- Compound string: "COC(=O)CCC[C@@H]1[C@H]2CCCN3CCC[C@@H](CN1C(=O)c1cc4ccc(Cl)cc4n1Cc1ccc(-c4ccccc4)cc1)[C@@H]23"
  Assigned class: "Not met"
- Compound string: "COC(=O)CCC[C@@H]1[C@H]2CCCN3CCC[C@@H](CN1C(=O)c1cc4ccc(Cl)cc4n1Cc1cccc(OCc4ccccc4)c1)[C@@H]23"
  Assigned class: "Not met"
- Compound string: "COC(=O)CCC[C@@H]1[C@H]2CCCN3CCC[C@@H](CN1C(=O)c1cc4ccc(Cl)cc4n1Cc1c(Cl)cccc1Cl)[C@@H]23"
  Assigned class: "Met"
